# credit: patent US11091451B2

biological target: UniProtKB P34897; assay: SHMT2 activity inhibition assay (serine production from glycine and CH2-THF, mass spectroscopy); details: 60 minutes at room temperature
Sequence (P34897 30-504): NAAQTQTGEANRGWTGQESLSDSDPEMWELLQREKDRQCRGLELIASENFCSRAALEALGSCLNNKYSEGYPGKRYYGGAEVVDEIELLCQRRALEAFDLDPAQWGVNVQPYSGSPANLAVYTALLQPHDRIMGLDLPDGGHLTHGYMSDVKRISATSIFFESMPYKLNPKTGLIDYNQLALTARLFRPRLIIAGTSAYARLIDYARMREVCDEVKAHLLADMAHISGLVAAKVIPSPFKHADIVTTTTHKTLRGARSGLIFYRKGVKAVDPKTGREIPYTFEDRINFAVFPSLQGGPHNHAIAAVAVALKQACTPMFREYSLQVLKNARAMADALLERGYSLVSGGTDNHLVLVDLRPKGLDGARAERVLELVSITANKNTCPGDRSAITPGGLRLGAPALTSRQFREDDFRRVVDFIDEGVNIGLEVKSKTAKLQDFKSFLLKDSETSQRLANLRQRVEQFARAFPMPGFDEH
endpoint-name: IC50

// worked examples, IC50 included
In [3]: df
Out[3]:
                                   molecule  target_or_test_system  endpoint_name   test_result
0  Cc1cccc(-c2cc(Cl)ccc2-c2nc(CC(=O)NC(C)(C)C(=O)O)cs2)c1C       UniProtKB P34897           IC50        < 1 µM
1  O=C(O)CNC(=O)Cc1csc(-c2ccc(Cl)c3ccccc23)n1       UniProtKB P34897           IC50  10 to 100 µM

Given the entry CC(C)c1ccc(-c2nc(CC(=O)N[C@@H](Cc3c[nH]c4ccccc34)C(=O)O)cs2)cc1 , report its measured IC50.
100 to 500 µM

Same again, this time with CC(C)(NC(=O)Cc1cc(-c2ccc(Cl)cc2-c2ccccc2)ccn1)C(=O)O
1 to 10 µM

And the next one, O=C(O)CNC(=O)Cc1csc(-c2ccc(Cl)cc2Cl)n1 ?
10 to 100 µM
